Just for reference, the supplement of paper PMC10307832 is where these values come from.

# System: NCI-H3122
# assay: relative viability (nuclei count vs DMSO), 5 days (fraction); higher = more cells survive
# assay_context: first compound 0.08 µM
endpoint_label: relative viability
Lab note: jot the number down without any unit.

molecule: Oc1nc(-c2ccc(C(F)(F)F)cc2)nc2c1CSCC2 [XAV939] + CS(=O)(=O)CCNCc1ccc(-c2ccc3ncnc(Nc4ccc(OCc5cccc(F)c5)c(Cl)c4)c3c2)o1 [Lapatinib] (partner 2 µM)
target_or_system: NCI-H3122
endpoint_label: relative viability
endpoint_value: 1.01
--
molecule: C=C1C(=O)O[C@@H](CCCCCCCC)[C@@H]1C(=O)O [C-75] + NC(=O)Nc1cc(-c2cccc(F)c2)sc1C(=O)N[C@H]1CCCNC1 [AZD7762] (partner 0.2 µM)
target_or_system: NCI-H3122
endpoint_label: relative viability
endpoint_value: 1.03
--
molecule: Oc1nc(-c2ccc(C(F)(F)F)cc2)nc2c1CSCC2 [XAV939] + Nc1nc2[nH]cc(CCc3ccc(C(=O)N[C@@H](CCC(=O)O)C(=O)O)cc3)c2c(=O)[nH]1 [Pemetrexed] (partner 0.2 µM)
target_or_system: NCI-H3122
endpoint_label: relative viability
endpoint_value: 0.211
--
molecule: Oc1nc(-c2ccc(C(F)(F)F)cc2)nc2c1CSCC2 [XAV939] + O=C(CCCCCCC(=O)Nc1ccccc1)NO [Vorinostat] (partner 1 µM)
target_or_system: NCI-H3122
endpoint_label: relative viability
endpoint_value: 1.03
--
molecule: C=C1C(=O)O[C@@H](CCCCCCCC)[C@@H]1C(=O)O [C-75] + N=C(N)NC(=N)NCCc1ccccc1 [Phenformin] (partner 250 µM)
target_or_system: NCI-H3122
endpoint_label: relative viability
endpoint_value: 0.405

Using the record for C=C1C(=O)O[C@@H](CCCCCCCC)[C@@H]1C(=O)O [C-75] + O=C(CCCCCCC(=O)Nc1ccccc1)NO [Vorinostat] (partner 1 µM) , report its relative viability.
1.02

Using the record for C=C1C(=O)O[C@@H](CCCCCCCC)[C@@H]1C(=O)O [C-75] + CCNC(=O)c1noc(-c2cc(C(C)C)c(O)cc2O)c1-c1ccc(CN2CCOCC2)cc1 [Luminespib] (partner 0.01 µM) , report its relative viability.
0.0952
